test: Biocompatibility, MTT assay; assay type: cell-based, human; settings: human, HFB4 normal human skin cells; 500 µg/ml
test_readout: viability at 500 µg/ml
Express your answer as a number followed by its unit.

Noted for "COc1ccc(NC(=O)/C(C#N)=C/c2cn(-c3ccccc3)nc2-c2ccccc2)cc1" : its viability at 500 µg/ml reads 99.6%

###

Assay: Biocompatibility, MTT assay
Format: cell-based, human
Conditions: human, HFB4 normal human skin cells; 31.25 µg/ml
Experimental: A complete monolayer sheet was created by incubating the 96-well tissue culture plate at 37 °C for 24 h following inoculation with 1 × 10^5 cells/ml (100 µl/well), following the procedure described by. […] They then evaluated 0.1 ml of each dilution in several wells. […] At 560 nm, optical density was measured, and at 620 nm, background was subtracted. […]
test_readout: viability at 31.25 µg/ml
Express your answer as a number followed by its unit.

Noted for "COc1ccc(NC(=O)/C(C#N)=C/c2cn(-c3ccccc3)nc2-c2ccccc2)cc1" : its viability at 31.25 µg/ml reads 99.9%

###

test system: A. niger ATCC 11414; assay: Well-diffusion antifungal activity; format: cell-based, Aspergillus niger; conditions: Aspergillus niger, ATCC11414; 1000 µg/ml, 72 h, 28 °C; read-out: IZD
Assign zone of inhibition at 1000 µg/mL to each entry below.
Express your answer as a number followed by its unit.

Noted for OC(Cn1cncn1)(Cn1cncn1)c1ccc(F)cc1F [Fluconazole, reference compound] : its zone of inhibition at 1000 µg/mL reads 32 mm

Noted for N#C/C(=C\c1cn(-c2ccccc2)nc1-c1ccccc1)C(=O)Nc1ccc(Cl)cc1 [3d] : its zone of inhibition at 1000 µg/mL reads 0 mm

Noted for Cc1ccc(N=Nc2ccc3oc(=O)c(C(=O)NN=Cc4cn(-c5ccccc5)nc4-c4ccccc4)cc3c2)cc1 [10b] : its zone of inhibition at 1000 µg/mL reads 28 mm

Noted for N#C/C(=C\c1cn(-c2ccccc2)nc1-c1ccccc1)C(=O)Nc1ccc([N+](=O)[O-])cc1 [3f] : its zone of inhibition at 1000 µg/mL reads 0 mm

Noted for COc1ccc(NC(=O)/C(C#N)=C/c2cn(-c3ccccc3)nc2-c2ccccc2)cc1 [3b] : its zone of inhibition at 1000 µg/mL reads 32 mm

Noted for O=C1c2c(Br)c(Br)c(Br)c(Br)c2C(=O)N1N=Cc1cn(-c2ccccc2)nc1-c1ccccc1 [compound 6] : its zone of inhibition at 1000 µg/mL reads 0 mm

Noted for N#CCC(=O)NN=Cc1cn(-c2ccccc2)nc1-c1ccccc1 [compound 8] : its zone of inhibition at 1000 µg/mL reads 0 mm

Noted for O=C1OC(=O)c2c(Br)c(Br)c(Br)c(Br)c21 [compound 5] : its zone of inhibition at 1000 µg/mL reads 0 mm

Noted for N#C/C(=C\c1cn(-c2ccccc2)nc1-c1ccccc1)C(=O)Nc1nc2ccccc2s1 [3h] : its zone of inhibition at 1000 µg/mL reads 0 mm

Noted for N#C/C(=C\c1cn(-c2ccccc2)nc1-c1ccccc1)C(=O)Nc1nccs1 [3g] : its zone of inhibition at 1000 µg/mL reads 18 mm

Noted for O=C(NN=Cc1cn(-c2ccccc2)nc1-c1ccccc1)c1cc2ccccc2oc1=O [10a] : its zone of inhibition at 1000 µg/mL reads 0 mm

Noted for N#C/C(=C\c1cn(-c2ccccc2)nc1-c1ccccc1)C(=O)Nc1ccc(Br)cc1 [3c] : its zone of inhibition at 1000 µg/mL reads 0 mm

Noted for CN(C)C=C1C(=O)NN=C(c2cn(-c3ccccc3)nc2-c2ccccc2)C1=O [compound 12] : its zone of inhibition at 1000 µg/mL reads 25 mm

Noted for CN(C)/C=C(\C#N)C(=O)N/N=C/c1cn(-c2ccccc2)nc1-c1ccccc1 [compound 11] : its zone of inhibition at 1000 µg/mL reads 0 mm

Noted for Cc1ccc(NC(=O)/C(C#N)=C/c2cn(-c3ccccc3)nc2-c2ccccc2)cc1 [3a] : its zone of inhibition at 1000 µg/mL reads 0 mm

Noted for N#C/C(=C\c1cn(-c2ccccc2)nc1-c1ccccc1)C(=O)Nc1ccc(C(=O)O)cc1 [3e] : its zone of inhibition at 1000 µg/mL reads 0 mm

Noted for N#Cc1c(-c2cn(-c3ccccc3)nc2-c2ccccc2)[nH][nH]c1=O [compound 7] : its zone of inhibition at 1000 µg/mL reads 0 mm
